Tested on: 931267-113-T-J1-PDC multicell spheroid viability;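 also: viability read 7 days after compound addition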
assay_comment: Anticancer human tumor 931267-113-T-J1-PDC patient-derived colon adenocarcinoma cell line growth inhibition [PI3K]
assay_context: second compound 3.16 µM; first compound 0.0316 µM; hits give low values
Lab note - cut at 80% for viability, T/C: criterion met if strictly below, criterion not met if not.

Here's what some known entries look like.
compound | target_or_test_system | category_label
CNC(=O)c1ccc(N2C(=S)N(c3ccc(C#N)c(C(F)(F)F)c3)C(=O)C2(C)C)cc1F + Cc1nc(NC(=O)N2CCCC2C(N)=O)sc1-c1ccnc(C(C)(C)C(F)(F)F)c1 | 931267-113-T-J1-PDC multicell spheroid viability | criterion met
Cn1ncc(Cl)c1-c1cc(C(=O)NC(CN)Cc2cccc(F)c2)sc1Cl (stereo unspecified) + Cc1nc(NC(=O)N2CCCC2C(N)=O)sc1-c1ccnc(C(C)(C)C(F)(F)F)c1 | 931267-113-T-J1-PDC multicell spheroid viability | criterion met
CC1(C)CCC(CN2CCN(c3ccc(C(=O)NS(=O)(=O)c4ccc(NCC5CCOCC5)c([N+](=O)[O-])c4)c(Oc4cnc5[nH]ccc5c4)c3)CC2)=C(c2ccc(Cl)cc2)C1 + CC(Nc1ncnc2nc[nH]c12)c1cc2cccc(Cl)c2c(=O)n1-c1ccccc1 | 931267-113-T-J1-PDC multicell spheroid viability | criterion not met

Problem: Given the entry CNC(=O)c1ccc(N2C(=S)N(c3ccc(C#N)c(C(F)(F)F)c3)C(=O)C2(C)C)cc1F + CC(Nc1ncnc2nc[nH]c12)c1cc2cccc(Cl)c2c(=O)n1-c1ccccc1 , would its reported viability, T/C be below 80%?
Solution: criterion not met
